# System: L1210 leukemia ip in BDF1 mice, survival T/C
# assayRemarks: NCI In Vivo Anticancer Drug Screen. Data for tumor model L1210 Leukemia (intraperitoneal) in B6D2F1 (BDF1) mice
# assayConditions: endpoint: mean survival time; dose: 400.0 mg/kg/injection; schedule: Q01DX001 (ip); vehicle: saline; higher = longer survival
Inconclusive results and toxic doses are left out.
resultType: T/C

{"molecule": "CC(C)CC(C)(CC(C)C)C(=O)O", "reportedValue": "102 % of control"}

Field: next molecule
Query: Value lookup for T/C; key = COC(=O)CC1=C(C)CCc2cc3c(cc21)sc1ccccc13
Result: 101 % of control
